Hello, the source for this data is paper PMC8224453, in case you need it.

experiment: Metabolic stability, rat liver S9; assay type: in vitro ADME; conditions: pooled liver S9 fraction, Table S4, n=1, read-out: t1/2 rat liver S9
property: half-life at 1 μM

In: Quote half-life at 1 μM reported for `FC(F)(F)c1cc(NCc2cn(-c3ccc(Oc4ccccc4)cc3)nn2)ccn1` please.
Out: 24.2 min

----------
Attribute: IC50
target: CYP2D6 (Homo sapiens, UniProt P10635); construct: Cyprotex (contract assay); assay: CYP inhibition (Cyprotex); format: in vitro ADME; conditions: read-out: CYP inhibition 2D6
Sequence (P10635 whole entry): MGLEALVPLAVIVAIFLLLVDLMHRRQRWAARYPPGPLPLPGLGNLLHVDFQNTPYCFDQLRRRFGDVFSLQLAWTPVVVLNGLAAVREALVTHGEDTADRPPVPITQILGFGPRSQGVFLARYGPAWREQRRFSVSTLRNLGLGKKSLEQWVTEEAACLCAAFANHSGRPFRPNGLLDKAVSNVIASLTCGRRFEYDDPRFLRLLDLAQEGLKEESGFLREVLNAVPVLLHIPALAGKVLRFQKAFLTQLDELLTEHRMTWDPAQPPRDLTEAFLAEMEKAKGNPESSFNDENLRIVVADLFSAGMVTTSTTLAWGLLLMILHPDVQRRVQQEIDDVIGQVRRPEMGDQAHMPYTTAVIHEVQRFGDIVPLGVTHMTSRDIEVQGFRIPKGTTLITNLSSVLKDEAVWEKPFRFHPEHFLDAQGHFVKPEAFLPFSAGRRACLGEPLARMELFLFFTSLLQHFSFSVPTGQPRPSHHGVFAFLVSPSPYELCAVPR

COc1ccc(-n2cc(CNc3ccnc(C(F)(F)F)c3)nn2)cc1Cl [Compound 17]: > 25 µM

# context switch: different molecule, same IC50
In: Retrieve IC50 on CYP2D6 (Homo sapiens, UniProt P10635); query FC(F)(F)c1cc(NCc2cn(-c3ccc(Oc4ccccc4)cc3)nn2)ccn1 [Compound 4]
Out: > 25 µM

----------
assay: In vivo pharmacokinetics after intratracheal instillation; set-up: species or system mouse; conditions: male, CD1, mouse, inhaled or intranasal, 0.5 mg kg^−1; mice, intratracheal, ELF calculated from BALF; read-out: t1/2 ELF (converted)
Attribute: half-life
Kindly provide the numeric value in min only, without the unit symbol.

NC[C@H]1O[C@H](O[C@H]2[C@H](O)[C@@H](O[C@H]3O[C@H](CO)[C@@H](O)[C@H](N)[C@H]3O)[C@H](N)C[C@@H]2N)[C@H](N)C[C@@H]1O: 33.6

# context switch: different molecule, same half-life
In: Quote half-life reported for `FC(F)(F)c1cc(NCc2cn(-c3ccc(Oc4ccccc4)cc3)nn2)ccn1` please.
Out: 33
